# Assayed Target: Thyrotropin receptor (Homo sapiens)
# Experiment Notes: Antagonists of the Thyroid Stimulating Hormone Receptor: HTS campaign; further: on the % scale 0 is the no-effect control and ±100 the full control effect
# Setup Conditions: TSHR-expressing cells, TSH-stimulated cAMP HTRF, 2 h; at 11.5 µM; stronger effect = lower value
# Excerpt: The thyroid-stimulating hormone receptor (TSHR) is a member of the 7 trans-membrane-spanning receptor (7TMR) family of cell surface receptors. TSHR-mediated hyperthyroidism is important in thyroid pathology. […] 1. […] The result is obtained by using a ViewLux read-out with HTRF settings.
Screen size: about 330,000 compounds; about 670 (0.2%) were called active. Many of the other results were omitted from the sample, so actives are more common in it than they were.

# Compound, Output Unit, activity change, negative = inhibition
records = [
    ("Cc1ccc(Nc2nc(N)nc(CN3CCN(Cc4ccccc4)CC3)n2)cc1Cl", "%", 5.19),
    ("CCN(Cc1ccccc1)C(=O)Cc1ccc(OC)c(S(=O)(=O)N2CCOCC2)c1", "%", 0.0578),
    ("CC(=O)/C(C)=N/O", "%", 17.4),
    ("CC(NC(=O)Cn1cc(C(F)(F)F)cc(Cl)c1=O)c1ccccc1 (stereo not drawn)", "%", 7.91),
    ("O=C(CNC(=O)c1cc(=O)[nH]c2ccccc12)Nc1ccc(F)c(F)c1", "%", 1.67),
    ("Cc1ccc(S(=O)(=O)N(C)c2ccc(OCC(=O)NC3=NCCS3)cc2)cc1", "%", 26.8),
    ("O=[N+]([O-])c1c(NCCO)cc(Sc2nc3ccccc3s2)c2nonc12", "%", -94.3),
    ("Cc1ccc(Nc2nc(N3CCOCC3)nc(N3CCOCC3)n2)cc1Cl", "%", -135),
]
